system: 134 cancer cell lines; experiment: Cell viability assay (ATPlite, 72 hours), IC50 on cancer cell line panel; conditions: Homo sapiens, COLO-829, read-out: IC50 in cell proliferation assay, cell line COLO 829 (BRAF p.V600E)
metric name: IC50 (µM)
Kindly answer with a numeric value in µM, unit omitted.

COc1cc2ncnc(Nc3ccc(F)c(Cl)c3)c2cc1NC(=O)/C=C/CN1CCCCC1 [dacomitinib] | 6.02

Now for the molecule whose IC50 we want.
Qu. Fill in the blank: the reported IC50 of CC(C)(C)c1nc(-c2cccc(NS(=O)(=O)c3c(F)cccc3F)c2F)c(-c2ccnc(N)n2)s1 [dabrafenib] is ____.
Ans. 0.044

* * *

Documented inhibition at 1 µM across a set of compounds
target: panel of 255 wild-type kinases (Homo sapiens, UniProt Q96PY6); test: Kinase panel profiling at 1 µmol/L (MSA or IMAP), percentage inhibition; type: biochemical; settings: NEK1; 1 µmol/L single concentration; read-out: %-inhibition, NEK1
Sequence (Q96PY6 whole entry): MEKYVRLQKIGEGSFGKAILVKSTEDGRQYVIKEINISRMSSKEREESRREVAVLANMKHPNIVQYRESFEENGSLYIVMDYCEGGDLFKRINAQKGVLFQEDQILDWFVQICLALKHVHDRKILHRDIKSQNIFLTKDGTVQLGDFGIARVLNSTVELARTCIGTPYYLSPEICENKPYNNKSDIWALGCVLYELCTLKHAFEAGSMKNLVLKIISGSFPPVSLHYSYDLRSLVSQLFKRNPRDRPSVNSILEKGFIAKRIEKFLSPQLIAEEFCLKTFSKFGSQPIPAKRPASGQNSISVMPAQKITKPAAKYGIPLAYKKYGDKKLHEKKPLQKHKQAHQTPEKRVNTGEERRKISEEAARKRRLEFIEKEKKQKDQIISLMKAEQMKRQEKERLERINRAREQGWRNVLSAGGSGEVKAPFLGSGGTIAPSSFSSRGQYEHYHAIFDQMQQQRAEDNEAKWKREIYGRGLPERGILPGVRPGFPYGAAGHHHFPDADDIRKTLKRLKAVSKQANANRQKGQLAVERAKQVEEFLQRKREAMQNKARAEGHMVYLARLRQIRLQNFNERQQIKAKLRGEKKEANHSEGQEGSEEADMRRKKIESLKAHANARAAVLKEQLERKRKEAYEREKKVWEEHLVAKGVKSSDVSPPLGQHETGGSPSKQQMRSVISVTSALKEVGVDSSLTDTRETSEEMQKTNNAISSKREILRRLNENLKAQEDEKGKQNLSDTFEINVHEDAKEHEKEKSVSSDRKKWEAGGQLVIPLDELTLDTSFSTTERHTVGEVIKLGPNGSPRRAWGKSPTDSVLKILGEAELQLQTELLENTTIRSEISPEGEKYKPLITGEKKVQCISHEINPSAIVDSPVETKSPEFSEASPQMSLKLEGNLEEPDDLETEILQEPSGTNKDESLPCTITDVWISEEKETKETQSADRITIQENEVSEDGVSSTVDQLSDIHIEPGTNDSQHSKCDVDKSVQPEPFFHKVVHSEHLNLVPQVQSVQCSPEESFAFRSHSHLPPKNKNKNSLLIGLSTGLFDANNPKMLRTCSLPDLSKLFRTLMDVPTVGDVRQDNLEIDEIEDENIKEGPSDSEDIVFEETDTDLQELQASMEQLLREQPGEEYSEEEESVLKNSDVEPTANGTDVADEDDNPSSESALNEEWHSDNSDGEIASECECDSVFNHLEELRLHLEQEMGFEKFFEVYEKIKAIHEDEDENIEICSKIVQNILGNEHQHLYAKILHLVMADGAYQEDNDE
Kindly answer with a numeric value in %, unit omitted.

COc1cc2ncnc(Nc3ccc(F)c(Cl)c3)c2cc1NC(=O)/C=C/CN1CCCCC1 | 0.762
CCc1nc(C(N)=O)c(Nc2ccc(N3CCC(N4CCN(C)CC4)CC3)c(OC)c2)nc1NC1CCOCC1 | 5.59

Qu. Fill in the blank: the reported inhibition at 1 µM of "CN1CCN(c2ccc(C(=O)Nc3n[nH]c4ccc(Cc5cc(F)cc(F)c5)cc34)c(NC3CCOCC3)c2)CC1" is ____.
Ans. -3.78

* * *

tested on: 134 cancer cell lines; test: Cell viability assay (ATPlite, 72 hours), IC50 on cancer cell line panel; conditions: Homo sapiens, SK-N-MC, read-out: IC50 in cell proliferation assay, cell line SK-N-MC
metric name: IC50 (µM)
Kindly answer with a numeric value in µM, unit omitted.

Take a look at these entries with their results.
CC(C)(C)c1nc(-c2cccc(NS(=O)(=O)c3c(F)cccc3F)c2F)c(-c2ccnc(N)n2)s1 | 1.78
CO[C@]1(C(=O)N[C@@H](C)c2ccc(-n3cc(F)cn3)nc2)CC[C@H](c2nc(C)cc(Nc3cc(C)[nH]n3)n2)CC1 | 10.4

Qu. Fill in the blank: the reported IC50 of "COC(=O)N[C@@H](C)CNc1nccc(-c2cn(C(C)C)nc2-c2cc(Cl)cc(NS(C)(=O)=O)c2F)n1" is ____.
Ans. 0.976

* * *

target: panel of 255 wild-type kinases (Homo sapiens); assay: Kinase panel profiling at 1 µmol/L (MSA or IMAP), percentage inhibition; type: biochemical; settings: kinase LYNa; 1 µmol/L single concentration; read-out: %-inhibition at 1 µmol/L, LYNa
Documented inhibition at 1 µM across a set of molecules
Kindly answer with a numeric value in %, unit omitted.

Take a look at these entries with their results.
Cn1cnc2c(F)c(Nc3ccc(Br)cc3F)c(C(=O)NOCCO)cc21 [binimetinib] | 3.76
CO[C@]1(C(=O)N[C@@H](C)c2ccc(-n3cc(F)cn3)nc2)CC[C@H](c2nc(C)cc(Nc3cc(C)[nH]n3)n2)CC1 [pralsetinib] | 92

Qu. Fill in the blank: the reported inhibition at 1 µM of Cn1cnc2c(F)c(Nc3ccc(Br)cc3Cl)c(C(=O)NOCCO)cc21 [selumetinib] is ____.
Ans. 6.53

* * *

test system: 134 cancer cell lines; assay: Cell viability assay (ATPlite, 72 hours), IC50 on cancer cell line panel; conditions: Homo sapiens, NCI-H82, read-out: IC50 in cell proliferation assay
pIC50: −log10 of the molar value.
Documented pIC50 across a set of compounds

Take a look at these entries with their results.
C=CC(=O)N1CCC([C@@H]2CCNc3c(C(N)=O)c(-c4ccc(Oc5ccccc5)cc4)nn32)CC1 [zanubrutinib] | < 4.50
CNC(=O)c1ccc(-c2cnc3ncc(Cc4ccc5ncccc5c4)n3n2)cc1F [capmatinib] | < 4.50

Qu. Fill in the blank: the reported pIC50 of CCn1c(=O)c(-c2cc(NC(=O)Nc3ccccc3)c(F)cc2Br)cc2cnc(NC)cc21 [ripretinib] is ____.
Ans. 5.96

* * *

Documented IC50 across a set of compounds
test system: 134 cancer cell lines; assay: Cell viability assay (ATPlite, 72 hours), IC50 on cancer cell line panel; details: Homo sapiens, NCI-H716, read-out: IC50 in cell proliferation assay, cell line NCI-H716 (FGFR2-COL14A1)
Kindly answer with a numeric value in nM, unit omitted.

Take a look at these entries with their results.
CO[C@]1(C(=O)N[C@@H](C)c2ccc(-n3cc(F)cn3)nc2)CC[C@H](c2nc(C)cc(Nc3cc(C)[nH]n3)n2)CC1 [pralsetinib] | 244
Cn1cnc2c(F)c(Nc3ccc(Br)cc3Cl)c(C(=O)NOCCO)cc21 [selumetinib] | 197
COc1cc2ncnc(Nc3ccc(F)c(Cl)c3)c2cc1NC(=O)/C=C/CN1CCCCC1 [dacomitinib] | 4910
COC(=O)N[C@@H](C)CNc1nccc(-c2cn(C(C)C)nc2-c2cc(Cl)cc(NS(C)(=O)=O)c2F)n1 [encorafenib] | 9560

Qu. Fill in the blank: the reported IC50 of Cc1cc(Nc2ncc(Cl)c(Nc3ccccc3S(=O)(=O)C(C)C)n2)c(OC(C)C)cc1C1CCNCC1 [ceritinib] is ____.
Ans. 1550

* * *

tested on: 134 cancer cell lines; assay: Cell viability assay (ATPlite, 72 hours), IC50 on cancer cell line panel; conditions: Homo sapiens, ASPC1, read-out: IC50 in cell proliferation assay, cell line AsPC-1
Documented IC50 across a set of molecules

Take a look at these entries with their results.
CC(=O)Nc1cccc(-n2c(=O)n(C3CC3)c(=O)c3c(Nc4ccc(I)cc4F)n(C)c(=O)c(C)c32)c1 | 14 nM
FC(F)(F)c1ccc(CNc2ccc(Cc3c[nH]c4ncc(Cl)cc34)cn2)cn1 | > 31600 nM
Cn1cnc2c(F)c(Nc3ccc(Br)cc3F)c(C(=O)NOCCO)cc21 | 116 nM
Cc1cc(Nc2ncnc3ccc(NC4=NC(C)(C)CO4)cc23)ccc1Oc1ccn2ncnc2c1 | > 31600 nM

Qu. Fill in the blank: the reported IC50 of "CCc1nc(C(N)=O)c(Nc2ccc(N3CCC(N4CCN(C)CC4)CC3)c(OC)c2)nc1NC1CCOCC1" is ____.
Ans. 545 nM

Qu. Repeat with "CO[C@]1(C(=O)N[C@@H](C)c2ccc(-n3cc(F)cn3)nc2)CC[C@H](c2nc(C)cc(Nc3cc(C)[nH]n3)n2)CC1"
Ans. 25900 nM

* * *

target: panel of 255 wild-type kinases (Homo sapiens, UniProt Q06187); test: Kinase panel profiling at 1 µmol/L (MSA or IMAP), percentage inhibition; type: biochemical; details: BTK kinase assay; 1 µmol/L single concentration; read-out: %-inhibition BTK
Sequence (Q06187 whole entry): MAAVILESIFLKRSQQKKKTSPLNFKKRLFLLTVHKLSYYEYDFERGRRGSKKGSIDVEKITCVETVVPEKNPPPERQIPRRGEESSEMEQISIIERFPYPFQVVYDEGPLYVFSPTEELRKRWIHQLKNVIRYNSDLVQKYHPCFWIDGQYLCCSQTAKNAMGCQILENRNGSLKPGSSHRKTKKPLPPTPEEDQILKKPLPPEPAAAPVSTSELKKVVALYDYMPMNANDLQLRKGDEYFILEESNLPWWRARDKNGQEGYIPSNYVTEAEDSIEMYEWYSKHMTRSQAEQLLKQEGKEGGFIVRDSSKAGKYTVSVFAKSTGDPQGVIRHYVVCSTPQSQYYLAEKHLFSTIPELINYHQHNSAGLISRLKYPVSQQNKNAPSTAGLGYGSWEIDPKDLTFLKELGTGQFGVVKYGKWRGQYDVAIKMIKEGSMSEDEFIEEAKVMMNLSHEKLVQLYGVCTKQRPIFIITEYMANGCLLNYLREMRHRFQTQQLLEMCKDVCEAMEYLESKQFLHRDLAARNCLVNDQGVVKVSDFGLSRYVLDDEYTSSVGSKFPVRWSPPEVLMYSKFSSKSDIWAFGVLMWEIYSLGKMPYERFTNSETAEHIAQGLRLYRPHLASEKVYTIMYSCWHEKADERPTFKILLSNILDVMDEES
metric name: inhibition at 1 µM (%)
Kindly answer with a numeric value in %, unit omitted.

Take a look at these entries with their results.
COc1ccc(CN2C3CC2CN(c2ccc(-c4cc(OCC(C)(C)O)cn5ncc(C#N)c45)cn2)C3)cn1 [selpercatinib] | 17
CO[C@]1(C(=O)N[C@@H](C)c2ccc(-n3cc(F)cn3)nc2)CC[C@H](c2nc(C)cc(Nc3cc(C)[nH]n3)n2)CC1 [pralsetinib] | 53
Cc1cc(Nc2ncnc3ccc(NC4=NC(C)(C)CO4)cc23)ccc1Oc1ccn2ncnc2c1 [tucatinib] | 21
Cn1cnc2c(F)c(Nc3ccc(Br)cc3Cl)c(C(=O)NOCCO)cc21 [selumetinib] | 52
CCc1nc(C(N)=O)c(Nc2ccc(N3CCC(N4CCN(C)CC4)CC3)c(OC)c2)nc1NC1CCOCC1 [gilteritinib] | 81
COc1cc2ncnc(Nc3ccc(F)c(Cl)c3)c2cc1NC(=O)/C=C/CN1CCCCC1 [dacomitinib] | 43

Now for the compound whose inhibition at 1 µM we want.
Qu. For panel of 255 wild-type kinases (Homo sapiens, UniProt Q06187), provide inhibition at 1 µM of Cc1nc(NC(=O)N2CCC[C@H]2C(N)=O)sc1-c1ccnc(C(C)(C)C(F)(F)F)c1 [alpelisib] please.
Ans. -0.621

* * *

test system: 134 cancer cell lines; assay: Cell viability assay (ATPlite, 72 hours), IC50 on cancer cell line panel; conditions: Homo sapiens, NCI-H2228, read-out: IC50 in cell proliferation assay
metric name: pIC50
On this scale, pIC50 is minus log10 of a concentration expressed in M (mol/L).

C[C@H]1Oc2cc(cnc2N)-c2c(nn(C)c2C#N)CN(C)C(=O)c2ccc(F)cc21 | 9.04

Qu. For 134 cancer cell lines, provide pIC50 of "CCn1c(=O)c(-c2cc(NC(=O)Nc3ccccc3)c(F)cc2Br)cc2cnc(NC)cc21" please.
Ans. 5.38

Qu. Repeat with "C=CC(=O)N1CCC[C@@H](n2nc(-c3ccc(Oc4ccccc4)cc3)c3c(N)ncnc32)C1"
Ans. 4.52

The reported numbers originate from paper PMC9516332.
